Some compounds, each annotated with its measured TGI.
System: SNB-19 CNS
assay_procedure: NCI tumour cell line growth inhibition, 48 h

Can you share its TGI? I mean this compound: Cc1ccccc1OC(C)C(=O)NN1C(=O)CSC1c1ccc(Cl)cc1 (stereo not given)
> 100 µM

Further cases:
Can you share its TGI? I mean this compound: COC(CN(C(C)=O)C1CCC2(SCCS2)c2[nH]c3ccccc3c21)OC (stereo not given)
> 100 µM

Can you share its TGI? I mean this compound: [N-]=[N+]=NC1OC(=O)C(Cl)=C1N=P(c1ccccc1)(c1ccccc1)c1ccccc1 (stereo not given)
> 10 µM

Can you share its TGI? I mean this compound: N#CN/C(N)=N/C/N=C(\N)NC#N
> 100 µM

Can you share its TGI? I mean this compound: CN(C)CCNC(=O)c1ccc(NCCCN(C)CCCNc2ccc(C(=O)NCCN(C)C)c3[nH]c4ccccc4c(=O)c23)c2c(=O)c3ccccc3[nH]c12
0.419 µM

###

Some molecules, each annotated with its measured TGI.
Tested on: MDA-MB-231 breast
assay_procedure: NCI tumour cell line growth inhibition, 48 h
Give the value in µM but do not write µM after it.

Example entries and their recorded answers appear below.
Could you share what TGI was measured for COc1cc2c(c(OC)c1OC)-c1ncc3c(OC)c(OC)c(OC)cc3c1C2 , tested on MDA-MB-231 breast?
86.8

Could you share what TGI was measured for CC(=O)c1ccc2c(c1)C1C=CCC1[C@H](c1cc3c(cc1Br)OCO3)N2 (stereo not given in full) , tested on MDA-MB-231 breast?
11.4

Could you share what TGI was measured for O=C1/C(=C/c2cccc(Br)c2)COc2ccc(O)cc21 , tested on MDA-MB-231 breast?
9.38

Here is the next item to consider.
Could you share what TGI was measured for CCOC(=O)c1cc2cc3c4c(c2oc1=O)CCCN4CCC3 , tested on MDA-MB-231 breast?
69.2

###

Tested on: M14 melanoma
assay_procedure: NCI tumour cell line growth inhibition, 48 h
Label Satisfied when TGI >= 30 µM; otherwise Not satisfied.

Consider the following illustrative entries.
Quick check, TGI >= 30 µM? CCOC(=O)Nc1nc2ccc(OC)cc2s1
Satisfied

Quick check, TGI >= 30 µM? COc1ccc(N=NC(C(=O)c2ccccc2)C(=O)c2ccccc2)cc1
Satisfied

Quick check, TGI >= 30 µM? O=S(=O)(NCCNc1nccc(-c2c(-c3ccc(F)c(O)c3)nc3sccn23)n1)c1ccc(F)cc1
Not satisfied

Further cases:
Quick check, TGI >= 30 µM? O=C(O)c1ccc(CI)cc1
Satisfied

###

Some molecules, each annotated with its measured TGI.
System: OVCAR-8 ovarian
assay_procedure: NCI tumour cell line growth inhibition, 48 h

Example entries and their recorded answers appear below.
Can you share its TGI? I mean this molecule: O=c1/c(=C/c2ccccc2[N+](=O)[O-])sc2nc3ccccc3n12
> 46.4 µM

Can you share its TGI? I mean this molecule: CN(C(=O)C12C3C4C5C3C1(C(=O)C13C6C7C8C6C1C8C73)C5C42)C(C)(C)C (stereo unspecified)
> 50 µM

Can you share its TGI? I mean this molecule: NC(=O)N/N=C(/CC1C(=O)Oc2ccccc21)c1ccccc1O (stereo unspecified)
> 100 µM

Can you share its TGI? I mean this molecule: O=C1/C(=C/c2cccc(Br)c2)COc2ccc(O)cc21
12.9 µM

Can you share its TGI? I mean this molecule: COc1ccc(N=NC(C(=O)c2ccccc2)C(=O)c2ccccc2)cc1
> 100 µM

Here is the next item to consider.
Can you share its TGI? I mean this molecule: CC1=C(C(=O)CC(=O)C(=O)Nc2cc(C)ccc2C)Sc2ccccc2N1
> 100 µM

###

Test system: UACC-257 melanoma
assay_procedure: NCI tumour cell line growth inhibition, 48 h
Some compounds, each annotated with its measured TGI.

Example entries and their recorded answers appear below.
Could you share what TGI was measured for COc1ccc(NC(=O)CC2SC(=Nc3ccccc3C)NC2=O)c([N+](=O)[O-])c1 (centres undefined) , tested on UACC-257 melanoma?
> 100 µM

Could you share what TGI was measured for CCP(=O)(CC)C(Cl)Cl , tested on UACC-257 melanoma?
> 100 µM

Could you share what TGI was measured for c1cc2c(s1)-c1sccc1C21OCCO1 , tested on UACC-257 melanoma?
> 100 µM

Could you share what TGI was measured for COc1ccc2c(=O)cc(-c3ccccc3)[nH]c2c1 , tested on UACC-257 melanoma?
> 100 µM

Could you share what TGI was measured for CCCCCCCCOC(=O)CC[C@@H](C)[C@H]1CC[C@H]2[C@@H]3[C@H](OC(=O)CCN)C[C@@H]4C[C@H](OC(=O)CCN)CC[C@]4(C)[C@H]3C[C@H](OC(=O)CCN)[C@]12C , tested on UACC-257 melanoma?
16.5 µM

Could you share what TGI was measured for FC(F)(c1ccc2ncccc2c1)c1nnc2ccc(-c3ccncc3)nn12 , tested on UACC-257 melanoma?
> 100 µM

Could you share what TGI was measured for CN(C)CCNC(=O)c1ccc(NCCCN(C)CCCNc2ccc(C(=O)NCCN(C)C)c3[nH]c4ccccc4c(=O)c23)c2c(=O)c3ccccc3[nH]c12 , tested on UACC-257 melanoma?
1.26 µM

Could you share what TGI was measured for COc1ccc2nc(-c3ccccc3)cc(OCC(=O)O)c2c1 , tested on UACC-257 melanoma?
> 100 µM

Could you share what TGI was measured for COC(=O)c1ccc(/C=C2\Oc3ccccc3C2=O)cc1 , tested on UACC-257 melanoma?
> 100 µM

Could you share what TGI was measured for COc1cc(OC)c(C(=O)/C=C/c2cc3c(cc2OCc2ccccc2)OC(C)(C)CC3)cc1CC=C(C)C , tested on UACC-257 melanoma?
> 25 µM

Here is the next item to consider.
Could you share what TGI was measured for Nc1[nH]nc(Nc2ccc(Cl)cc2)c1P(=O)(c1ccccc1)c1ccccc1 , tested on UACC-257 melanoma?
> 100 µM

###

Test system: SF-268 CNS
assay_procedure: NCI tumour cell line growth inhibition, 48 h
Some compounds, each annotated with its measured TGI.

Example entries and their recorded answers appear below.
Can you share its TGI? I mean this compound: CCc1ccc(NC(=O)NC(=O)c2ccccc2[N+](=O)[O-])cc1Oc1ncc(Cl)cn1
> 16.9 µM

Can you share its TGI? I mean this compound: CC(C)c1c(-c2ccccc2)nc2c(C#N)c[nH]n2c1=O
> 100 µM

Can you share its TGI? I mean this compound: CN(C)c1ccc(/C=C2\N=C(NNc3ccccc3)NC2=O)cc1
> 100 µM

Further cases:
Can you share its TGI? I mean this compound: O=C(CCC(=O)Nc1ccc(Cl)c(Cl)c1)CC(=O)c1ccc(Br)cc1
> 100 µM

Can you share its TGI? I mean this compound: CC(=O)Nc1ccc(C(=O)NN2C(=O)C(Cl)/C2=C/c2ccco2)cc1 (stereo unspecified)
> 100 µM

Can you share its TGI? I mean this compound: Cc1cnc2sn(-c3ccc([N+](=O)[O-])cc3)c(=O)c2c1
> 100 µM

Can you share its TGI? I mean this compound: CCCC(CCC(N)=O)(CCC(N)=O)[N+](=O)[O-]
> 100 µM

Can you share its TGI? I mean this compound: Cc1nn[n-]n1.N.N.N.N.N.[Cl-].[Co+3]
> 100 µM

Can you share its TGI? I mean this compound: Nc1[nH]nc(Nc2ccc(Cl)cc2)c1P(=O)(c1ccccc1)c1ccccc1
33.8 µM

Can you share its TGI? I mean this compound: COc1ccc(-c2cs/c(=N\N=C\c3ccc(O)cc3O)n2/N=C/c2ccc(O)cc2O)cc1
6.13 µM

Can you share its TGI? I mean this compound: Cc1c2ccncc2cc2c1[nH]c1ccccc12
32.3 µM

Can you share its TGI? I mean this compound: [C](#Cc1ccccc1)[Hg][C]#Cc1ccccc1
38 µM

Can you share its TGI? I mean this compound: O=c1c2cc(F)ccc2sc2c(N3CCNCC3)nc3ccc(F)cc3c12
3.16 µM

Can you share its TGI? I mean this compound: CCOC(=O)C(=O)Nc1ccccc1C
> 100 µM

Can you share its TGI? I mean this compound: [O-][N+](=Nc1ccccc1CO)c1ccccc1CO
> 100 µM

Can you share its TGI? I mean this compound: OC1(c2ccc(-c3ccccc3)cc2)c2ccccc2C2=NCCN21 (stereo unspecified)
> 100 µM

###

Test system: OVCAR-3 ovarian
assay_procedure: NCI tumour cell line growth inhibition, 48 h
Some molecules, each annotated with its measured TGI.

Example entries and their recorded answers appear below.
Can you share its TGI? I mean this molecule: CCCCCCCCOC(=O)CC[C@@H](C)[C@H]1CC[C@H]2[C@@H]3[C@H](OC(=O)CCN)C[C@@H]4C[C@H](OC(=O)CCN)CC[C@]4(C)[C@H]3C[C@H](OC(=O)CCN)[C@]12C
35.4 µM

Can you share its TGI? I mean this molecule: NCCSSCCN
> 100 µM

Can you share its TGI? I mean this molecule: COc1ccc(NC(=O)CC2SC(=Nc3ccccc3C)NC2=O)c([N+](=O)[O-])c1 (stereo not drawn)
> 100 µM

Can you share its TGI? I mean this molecule: CCC(O)c1ccc(Br)cc1NC(=O)c1cccc(Cl)c1 (stereo not drawn)
71.1 µM

Can you share its TGI? I mean this molecule: O=C(Nc1cc(C(F)(F)F)ccc1Cl)c1ccc(NC2=C(Cl)C(=O)N(Cc3ccccc3)C2=O)cc1
46.1 µM

Further cases:
Can you share its TGI? I mean this molecule: S=c1snc2n1CCN2
> 100 µM

Can you share its TGI? I mean this molecule: CN(C(=O)C12C3C4C5C3C1(C(=O)C13C6C7C8C6C1C8C73)C5C42)C(C)(C)C (stereo not drawn)
> 50 µM

Can you share its TGI? I mean this molecule: COc1cc2ncn(-c3cc(OCc4ccccc4C(F)(F)F)c(C(=O)N(C)C)s3)c2cc1OC
> 25 µM

Can you share its TGI? I mean this molecule: CC(=O)Nc1ccc(C(=O)NN2C(=O)C(Cl)/C2=C/c2ccco2)cc1 (stereo not drawn)
> 100 µM

Can you share its TGI? I mean this molecule: CN(C)c1ccc(C=NCC2CCCN3CCCCC23)cc1 (stereo not drawn)
> 100 µM
